Assignment: determine reported viability, T/C for the given compounds.
Test system: 323965-272-R-J2-PDC complex spheroid viability;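 also: spheroids exposed to agents for seven days before readout; percent of DMSO vehicle control wells so 100% = untreated growth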
Assay: Anticancer human tumor 323965-272-R-J2-PDC patient-derived pancreatic carcinoma cell line growth inhibition [CLK]
Conditions: second compound 0.0316 µM; first compound 0.01 µM; active compounds read low
Answers are plain numbers, in %.

Below: 2 compounds and their reported viability, T/C.
[
  {
    "compound": "CCN1CCN(Cc2ccc(Nc3ncc(F)c(-c4cc(F)c5nc(C)n(C(C)C)c5c4)n3)nc2)CC1 + CNC(=O)c1ccc(Nc2nc(OC3CCCC3)c3c(-c4ccc5nc(C)oc5c4)c[nH]c3n2)c(OC)c1",
    "viability, T/C (%)": 103
  },
  {
    "compound": "COc1c(OCCCN2CCOCC2)ccc2c3n(c(=NC(=O)c4cnc(N)nc4)nc12)CCN3 + CNC(=O)c1ccc(Nc2nc(OC3CCCC3)c3c(-c4ccc5nc(C)oc5c4)c[nH]c3n2)c(OC)c1",
    "viability, T/C (%)": 82
  }
]

Would you kindly look at the next entry?
viability, T/C for CCN1CCN(Cc2ccc(Nc3ncc(F)c(-c4cc(F)c5nc(C)n(C(C)C)c5c4)n3)nc2)CC1 + CN1CCN(c2cc(C(=O)Nc3cc4cc(-c5cnn(C)c5)ccc4cn3)ccn2)CC1 is 96.1

// data source = PubChem BioAssay AID2060619
